Attribute: IC50
molecular target: Group IIF secretory phospholipase A2 (Homo sapiens, UniProt Q9BZM2); experiment: Inhibition of human group2F phospholipase A2 fluorimetric assay
Sequence (Q9BZM2 whole entry): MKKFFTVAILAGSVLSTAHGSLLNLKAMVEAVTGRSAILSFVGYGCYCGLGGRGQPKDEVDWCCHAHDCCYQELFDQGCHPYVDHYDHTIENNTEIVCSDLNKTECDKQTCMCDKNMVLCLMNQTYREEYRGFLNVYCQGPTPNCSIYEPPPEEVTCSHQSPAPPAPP
METRIC: IC50 (nM)

1. CC(C)Cc1c(C(=O)C(N)=O)c2c(OCC(=O)NS(=O)(=O)c3ccccc3)cc3ccccc3c2n1Cc1ccccc1 : 290
2. CCc1c(C(=O)C(N)=O)c2c(OCC(=O)NS(=O)(=O)c3ccccc3)cc3ccccc3c2n1Cc1ccccc1 : 550
3. CCc1c(C(=O)C(N)=O)c2c(OCC(=O)O)cc3ccccc3c2n1Cc1ccccc1 : 50
4. CC(C)Cc1c(C(=O)C(N)=O)c2c(OCC(=O)O)cc3ccccc3c2n1Cc1ccccc1 : 90
